The reported numbers originate from patent US6369225B1.

# Test system: skin of hairless mice
# assay.notes: topical skin irritation test in hairless mice
# Format: in vivo, mouse
# test.settings: 100 nmole (nmol/25 g), topical in acetone, once daily days 1 through 5; mean ±SD, range 0-21
# Cutaneous Toxicity Score (Blackjack Score) per record follows
endpoint.label: Cutaneous Toxicity Score (Blackjack Score)

compound | assay.result
CN(C1CC1)C1CCC(C)(C)c2cc(C#Cc3ccc(CC(=O)O)c(F)c3)ccc21 (stereo not drawn) | 0
CC1(C)CC2(CC2)Oc2c(C3CC3)cc(C#Cc3ccc(CC(=O)O)cc3)cc21 | 1
CC1(C)CC2(CC2)Oc2c(C3CC3)cc(C(=O)Oc3ccc(CC(=O)O)cc3)cc21 | 0
